Molecular target: Aspartate--tRNA(Asp/Asn) ligase (Mycobacterium tuberculosis (strain ATCC 25618 / H37Rv))
Assay: Assay for Asp RNA synthetase-1 from Mycobacterium tuberculosis
Assay type: functional
Parameters: scale not given: in the data most compounds retested in dose-response had high values
Conditions: 30 µM
property_measured: Percent Effect (%)

1) Cc1nc(CN2CCN(C(=O)COCc3ccccc3)CC2)no1 = -0.353
2) CC(=O)N1CCc2c(nc(-c3ccccn3)nc2N(C)CC(O)CO)C1 (configuration not stated) = -6.34
3) COc1ccc(CCN2CCC(N3CCN(C)C3=O)CC2)cc1 = -1.97
4) CCN(Cc1ccco1)C(=O)NCc1nnc2n1CCC2 = 0.859
5) CCn1cc(NC(=O)C2CCN(CC(=O)N3CCOCC3)CC2)cn1 = -3.23
6) CCn1cc(NC(=O)NCC(c2cccs2)N(C)C)cn1 (configuration not stated) = -1.06
7) CCCS(=O)(=O)N1CCC2(CN(c3ccsc3)C(=O)CN2C)C1 (configuration not stated) = -3.98
8) Cc1noc(C)c1CN1CCO[C@H]2CNC[C@H]21 = 7.37
9) Cc1ccc(CC(=O)N2Cc3nccn3CC(CN(C)C)C2)cc1 (configuration not stated) = 1.66
10) CC(C)Cc1nc(OCC(=O)O)c(C#N)c2c1CCC2 = 0.639
11) O=C1CC(c2ccncc2)C2(CCN(CCO)CC2)N1 (configuration not stated) = -1.48
12) Cn1cc(NS(=O)(=O)c2ccc(OC(F)(F)F)cc2)ccc1=O = 51.5

Each recorded value in this set is attributed to ChEMBL document CHEMBL3988442.
